Test system: Euphorbia heterophylla (EPHHL)
Assay: Post-emergence efficacy, Method A
Assay type: in vivo
Conditions: Euphorbia heterophylla, post-emergence, 312 h; Application rate 500 g/Ha; evaluated after 13 days; 100=total damage to plant, 0=no damage to plant; read-out: Control of weed species after post-emergence application, EPHHL
So basically, if pest or weed control at 500 g/ha comes in under 60% it's 1 (yes), and if it's 60% or more it's 0 (no).

Please review the following examples before continuing.
molecule="Cc1cc(F)cnc1-c1cc[n+](CCC(=O)O)nc1 [Compound A151]" assigned_label="1 (yes)"
molecule="COc1ccnc(-c2cc[n+](CCC(=O)[O-])nc2)n1 [Compound A101]" assigned_label="0 (no)"
molecule="Cc1cccc(-c2cc[n+](CCC(=O)[O-])nc2)n1 [Compound A63]" assigned_label="1 (yes)"

Enquiry: Problem: For the molecule CC(CC(=O)O)[n+]1ccc(-c2ncccn2)cn1 (stereo not shown) [Compound A40, 2,2,2-trifluoroacetate] , is pest or weed control at 500 g/ha under 60%?
Return: 0 (no)

Enquiry: Problem: For the molecule COc1nccc(-c2cc[n+](CCS(=O)(=O)[O-])nc2)n1 [Compound A60] , is pest or weed control at 500 g/ha under 60%?
Return: 0 (no)

Enquiry: Problem: For the molecule Cc1cc(C)nc(-c2cc[n+](CCS(=O)(=O)[O-])nc2)n1 [Compound A48] , is pest or weed control at 500 g/ha under 60%?
Return: 0 (no)

Enquiry: Problem: For the molecule Cc1cnc(-c2cc[n+](CCS(=O)(=O)[O-])nc2)nc1C [Compound A97] , is pest or weed control at 500 g/ha under 60%?
Return: 0 (no)

Enquiry: Problem: For the molecule CCOC(=O)CC[n+]1ccc(-c2ccccn2)cn1 [Compound A91] , is pest or weed control at 500 g/ha under 60%?
Return: 1 (yes)

Enquiry: Problem: For the molecule Cc1cnc(-c2cc[n+](CCC(=O)[O-])nc2)nc1C [Compound A96] , is pest or weed control at 500 g/ha under 60%?
Return: 0 (no)

Enquiry: Problem: For the molecule O=S(=O)([O-])CC[n+]1ccc(-c2ccnc(C(F)(F)F)n2)cn1 [Compound A108] , is pest or weed control at 500 g/ha under 60%?
Return: 0 (no)

Enquiry: Problem: For the molecule Cc1c[n+](CCS(=O)(=O)[O-])ncc1-c1ncccn1 [Compound A87] , is pest or weed control at 500 g/ha under 60%?
Return: 1 (yes)

Enquiry: Problem: For the molecule COc1cnc(-c2cc[n+](CCS(=O)(=O)[O-])nc2)nc1 [Compound A14] , is pest or weed control at 500 g/ha under 60%?
Return: 1 (yes)

Enquiry: Problem: For the molecule Cc1cnc(-c2cc[n+](CCS(=O)(=O)[O-])nc2)c(Cl)c1 [Compound A136] , is pest or weed control at 500 g/ha under 60%?
Return: 1 (yes)
